experimental system: UniProtKB Q9H0K1
Sequence (Q9H0K1 whole entry, species assumed): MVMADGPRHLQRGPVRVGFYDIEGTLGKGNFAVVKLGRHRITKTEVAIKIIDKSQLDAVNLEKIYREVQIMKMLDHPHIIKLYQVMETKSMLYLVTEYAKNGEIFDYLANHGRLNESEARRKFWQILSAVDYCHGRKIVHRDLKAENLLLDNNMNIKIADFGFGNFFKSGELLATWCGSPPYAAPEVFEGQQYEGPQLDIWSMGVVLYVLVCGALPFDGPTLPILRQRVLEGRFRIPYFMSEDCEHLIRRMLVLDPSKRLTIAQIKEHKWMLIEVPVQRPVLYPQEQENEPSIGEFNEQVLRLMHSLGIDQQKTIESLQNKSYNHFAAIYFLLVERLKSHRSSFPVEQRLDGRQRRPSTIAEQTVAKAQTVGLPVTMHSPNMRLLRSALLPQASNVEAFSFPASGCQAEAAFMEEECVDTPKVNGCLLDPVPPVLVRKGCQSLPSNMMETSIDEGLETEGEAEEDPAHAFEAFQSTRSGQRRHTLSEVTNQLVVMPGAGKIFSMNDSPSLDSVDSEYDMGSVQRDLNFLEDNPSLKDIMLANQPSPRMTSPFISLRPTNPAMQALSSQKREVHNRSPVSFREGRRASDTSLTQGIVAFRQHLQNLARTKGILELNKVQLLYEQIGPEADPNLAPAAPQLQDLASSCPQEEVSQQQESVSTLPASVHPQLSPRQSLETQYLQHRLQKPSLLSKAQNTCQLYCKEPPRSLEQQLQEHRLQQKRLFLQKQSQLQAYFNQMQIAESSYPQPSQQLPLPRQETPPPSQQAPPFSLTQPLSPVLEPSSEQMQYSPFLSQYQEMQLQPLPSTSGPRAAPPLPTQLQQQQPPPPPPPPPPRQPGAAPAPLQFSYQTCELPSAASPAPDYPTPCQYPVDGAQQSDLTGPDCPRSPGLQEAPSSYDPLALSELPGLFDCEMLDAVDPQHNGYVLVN
run description: SIK2 Enzymatic Assay Version 2 (High ATP)
Type: biochemical
conditions used: 3 mM ATP and 200 μM HDAC5tide final, ADP-Glo Max luminescence
quantity measured: IC50 (nM)

Cc1cc(Nc2cc3cc(-c4c(O[C@@H]5CNC[C@@H]5F)cnn4C(F)F)ccn3n2)nc(C)n1: 6.6
CN1CC(C)(COc2cnn(C)c2-c2ccn3nc(NC(=O)C4CC4)cc3c2)C1: 30.4
Cc1cc(Nc2cc3cc(-c4c(OC[C@H]5COC6(CCCC6)O5)cnn4C)ccn3n2)nc(C)n1 (single isomer, unassigned): 31.1
Cc1cncc(Nc2cc3cc(-c4c(CO[C@H]5CN(C)C[C@H]5C)cnn4C)ccn3n2)n1 (stereo in doubt) [Example 378]: 12.2
CCN1CC[C@H]1COc1cnn(C)c1-c1ccn2nc(Nc3cc(C)nc(C(F)(F)F)n3)cc2c1: 23
CN1CC[C@H](Oc2cnn(C)c2-c2ccn3nc(Nc4cccc(C(F)(F)F)n4)cc3c2)C1: 39.5
Cc1cc(C)c(Nc2cc3cc(-c4c(OC[C@H]5CCN5C)cnn4C)ccn3n2)nn1: 1140
CCN1CC[C@@H]1COc1cnn(C(F)F)c1-c1ccn2nc(Nc3cc(C)ncn3)cc2c1: 3
CCN1CC[C@@H]1COc1cnn(C(F)F)c1-c1ccn2nc(Nc3ccnc(OC)n3)cc2c1: 17.6
